B1: TPR t1 (parent)
chain: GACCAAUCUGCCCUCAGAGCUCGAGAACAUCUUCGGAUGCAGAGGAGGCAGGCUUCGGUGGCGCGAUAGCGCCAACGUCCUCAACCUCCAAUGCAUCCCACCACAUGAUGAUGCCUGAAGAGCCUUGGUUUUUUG

variants of: B1; assay: polymerase ribozyme fitness, log enrichment relative to wild type (log ratio); higher = more active; in vitro selection for triplet polymerase activity
Response key: y means polymerase ribozyme fitness (log ratio) >= -3; n means polymerase ribozyme fitness (log ratio) < -3.

Answered cases to consult:
{"columns": ["ORDERED_RESIDUES", "GROUP"],
 "data": [
  ["GACCAAUCUGCCCUCAGAGCUCGAGAACAUCUUCGGAUGCAGAGGAGGCAGGAUUCGGUGGCGCGAUAGCGCCAACGUCCUCAACCUCCAAUGCAUCCCACCACAUGAUGAUGCUUGAUGAGCCUUGGUUUUUUG [C53A C115U A119U]", "y"],
  ["GACCAAUCUGCCCUCAGAGCUCGAGAUCAUCUUCGGAUGCUGAGGAGGUAGGCUUCGGUGGCGCGAUAGCGUCAACGUCCUCAACCUCCAAUGCAUCCCACCACAUGAUGAUGCCUGAAGAGCCUUGGUUUUUUG [A27U A41U C49U C72U]", "n"],
  ["GACCAAUCUGCCCUCAGAGCUCGAGAACAUCUUCGUAUGCAGAGGAGGCAGGCUUCGGUGGCGCGAUAGCGCCAACGUCCUCAACCUCCAAUGCAUCCCACCACAUGAUGAAGCCUGAAGAGCCUUGGUUUUUUG [G36U U112A]", "y"],
  ["GACCAAUCUGCCCUCAUAGCUCGAGAACAUCUUCGGAUGCAGAGGAGGAAGGCUUCGGUGACGCGAUAGCGCCAACGUCCUCAACCUCCAAUGCAUCCCACCACAUGAUGAUGCCUGAAGAGCCUUGGUUUUUUG [G17U C49A G61A]", "y"],
  ["GACCAAUCUGCACUCAGAGCUCGAGAACAUCUUCGGAUGCAGAGGAGGCAGGCUUCGGUAGCGCGAUAGCGCCAACGUCCUCAACCUCCAAUGCAUCCCACCACAUGAUUAUGCCUGAAGAACCUUGGUUUAUUG [C12A G60A G110U G122A U132A]", "n"]
]}

Continue with the variant presented below.
Ask: Is it the case that GACCAAUCUGCCCUCAGAGCUCGAGAACAUCUUCGGAUGCAGAGGAGGCAGGCUUCGGUGGCGCGAUAGCGCCAACGUCCUCAACCUCCAAUGCAUCCCACCACACGAUGAUGCCUGAAGAGCCUUGGUUCAUUG [U106C U131C U132A] has polymerase ribozyme fitness (log ratio) reaching or exceeding -3?
Reply: y
